// provenance: patent US20260193293A1

# target-or-test-system: Sushi domains (SD1/2) protein of GABAB1a (GB1a)
# Sequence (Q9Z0U4 29-158): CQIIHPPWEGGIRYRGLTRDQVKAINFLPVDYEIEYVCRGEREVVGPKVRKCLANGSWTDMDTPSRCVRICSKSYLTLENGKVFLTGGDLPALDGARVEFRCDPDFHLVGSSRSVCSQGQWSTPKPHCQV
# assay-explanation: FP competition vs TAMRA AJAP-1probe
Here, each record is paired with measured Ki data.
Give the number; nM is assumed, so skip it.

Reference set, count: 3
Find the recorded Ki belonging to Ac-ETEFIAWYPTGDED-NH2 and report it.
199

Find the recorded Ki belonging to Ac-RRREDDDWIDWGPTSDDD-NH2 [R3-17] and report it.
9

Find the recorded Ki belonging to Ac-AIVWGPTVSRED-NH2 and report it.
683

The record that follows has no Ki shown yet.
Find the recorded Ki belonging to Ac-ETEFIDWGPTGDED-NH2 [peptide 26] and report it.
9
